Target: CB1 (mutant) (Homo sapiens, UniProt P21554)
Sequence (P21554 1-417, change not shown): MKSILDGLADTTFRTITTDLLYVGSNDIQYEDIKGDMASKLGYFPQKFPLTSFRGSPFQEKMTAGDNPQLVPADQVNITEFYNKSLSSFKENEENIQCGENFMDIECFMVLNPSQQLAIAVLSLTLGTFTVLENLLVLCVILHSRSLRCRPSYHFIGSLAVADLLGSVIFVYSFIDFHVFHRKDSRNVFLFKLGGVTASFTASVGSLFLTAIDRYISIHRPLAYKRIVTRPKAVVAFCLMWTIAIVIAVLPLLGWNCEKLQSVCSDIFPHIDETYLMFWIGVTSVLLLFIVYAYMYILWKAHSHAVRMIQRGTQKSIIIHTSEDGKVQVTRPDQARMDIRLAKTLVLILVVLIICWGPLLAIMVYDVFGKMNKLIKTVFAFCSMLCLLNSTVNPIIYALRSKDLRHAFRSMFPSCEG
Experiment: R-SAT functional receptor assay, CB1 (mutant, truncated after amino acid 417)
Format: cell-based
Settings: Appendix A; R-SAT CB1; receptor form not stated; relative to SR141716 (100%); read-out: % Inhibition
Items are presented alongside their recorded Emax.
Endpoint Label: Emax (%)

# Molecule, Endpoint Label, Val
records = [
    ("CCCCC1=Nc2cc(C(=O)NN3CCCCC3)ccc2Sc2ccccc21", "Emax", 82),
    ("O=C(NN1CCCCCC1)c1ccc2c(c1)N=C(c1ccc(Cl)cc1Cl)c1ccccc1S2 [drawing 876]", "Emax", 82),
    ("O=C(NCc1ccc(F)cc1)c1ccc2c(c1)N=C(N1CCCCC1)c1ccccc1S2 [drawing 611]", "Emax", 80),
]

* * *

Biological target: native CB1 receptors (Rattus norvegicus, UniProt P20272)
Sequence (P20272 whole entry): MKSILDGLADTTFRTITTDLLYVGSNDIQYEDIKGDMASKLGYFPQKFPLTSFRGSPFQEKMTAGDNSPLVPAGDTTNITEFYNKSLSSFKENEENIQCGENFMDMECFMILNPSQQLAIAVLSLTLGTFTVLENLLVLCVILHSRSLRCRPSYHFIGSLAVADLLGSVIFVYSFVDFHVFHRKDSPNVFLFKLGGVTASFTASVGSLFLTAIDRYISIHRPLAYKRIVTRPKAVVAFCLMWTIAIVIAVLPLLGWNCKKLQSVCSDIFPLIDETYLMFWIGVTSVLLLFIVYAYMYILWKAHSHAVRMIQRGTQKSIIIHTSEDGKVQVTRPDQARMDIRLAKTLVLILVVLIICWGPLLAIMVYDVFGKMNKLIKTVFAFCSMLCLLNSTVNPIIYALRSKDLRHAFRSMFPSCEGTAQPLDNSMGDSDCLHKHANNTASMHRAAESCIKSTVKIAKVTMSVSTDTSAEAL
Test: CB1 receptor rat binding assay ([3H]SR141716A, rat brain membranes)
Conditions: rat brain membranes, [3H]SR141716A

# Molecule, Target Under Test, Scale Unit, Binding rat Inh %
records = [
    ("COc1ccc(C2=Nc3cc(C(=O)NCCC(C)C)ccc3Sc3ccccc32)cc1 [drawing 1351]", "native CB1 receptors (Rattus norvegicus, UniProt P20272)", "%", 81),
    ("CC(C)NC(=O)c1ccc2c(c1)N=C(c1ccc(F)cc1)c1ccccc1S2 [drawing 1429]", "native CB1 receptors (Rattus norvegicus, UniProt P20272)", "%", 80),
    ("O=C(NN1CCCCC1)c1ccc2c(c1)N=C(c1cccc(Cl)c1)c1ccccc1S2 [drawing 1380]", "native CB1 receptors (Rattus norvegicus, UniProt P20272)", "%", 79),
    ("COc1ccc(C2=Nc3cc(C(=O)NC(C)C)ccc3Sc3ccccc32)cc1 [drawing 1550]", "native CB1 receptors (Rattus norvegicus, UniProt P20272)", "%", 79),
    ("O=C(NNCc1ccccc1)c1ccc2c(c1)N=C(c1cccc(Br)c1)c1ccccc1S2 [drawing 1505]", "native CB1 receptors (Rattus norvegicus, UniProt P20272)", "%", 66),
    ("O=C(NCc1cccnc1)c1ccc2c(c1)N=C(c1ccc(F)cc1)c1ccccc1S2 [drawing 1541]", "native CB1 receptors (Rattus norvegicus, UniProt P20272)", "%", 97),
    ("O=C(NCc1ccco1)c1ccc2c(c1)N=C(c1ccc(Cl)cc1)c1ccccc1S2 [drawing 1369]", "native CB1 receptors (Rattus norvegicus, UniProt P20272)", "%", 93),
    ("N#Cc1ccc(C2=Nc3cc(C(=O)NNCc4ccccc4)ccc3Sc3ccccc32)cc1 [drawing 1538]", "native CB1 receptors (Rattus norvegicus, UniProt P20272)", "%", 65),
    ("O=C(NCc1cccs1)c1ccc2c(c1)N=C(c1cccc(Cl)c1)c1ccccc1S2 [drawing 1272]", "native CB1 receptors (Rattus norvegicus, UniProt P20272)", "%", 109),
    ("O=C(NCc1cccnc1)c1ccc2c(c1)N=C(c1ccccc1F)c1ccccc1S2 [drawing 1318]", "native CB1 receptors (Rattus norvegicus, UniProt P20272)", "%", 73),
]

* * *

Molecular target: CB1 (mutant) (Homo sapiens, UniProt P21554)
Experiment: R-SAT functional receptor assay, CB1 (mutant, truncated after amino acid 417)
Assay type: cell-based
Settings: Appendix A; R-SAT CB1; receptor form (mutant or wild-type) not stated; read-out: pIC50 (converted)
So basically, if IC50 comes in under 50 nM it's rule met, and if it's 50 nM or more it's rule not met.

# Compound, Label
measured = [
    ("CCCC1=Nc2cc(C(=O)NCCCc3ccccc3)ccc2Sc2ccccc21 [drawing 763]", "rule met"),
    ("O=C(NCc1ccc(Cl)cc1Cl)c1ccc2c(c1)N=C(c1ccc(F)cc1)c1ccccc1S2 [drawing 1057]", "rule met"),
    ("CCOC(=O)N1CCC(NC(=O)c2ccc3c(c2)N=C(CC(C)C)c2ccccc2S3)CC1", "rule not met"),
    ("O=C(NCCC(F)(F)F)c1ccc2c(c1)N=C(c1cccc(Cl)c1)c1ccccc1S2 [drawing 549]", "rule met"),
    ("O=C(NCCCc1ccccc1)c1ccc2c(c1)N=C(c1cccc(Cl)c1)c1ccccc1S2 [drawing 615]", "rule met"),
    ("CONC(=O)c1ccc2c(c1)N=C(c1cccc(Br)c1)c1ccccc1S2", "rule not met"),
    ("Cc1ccsc1C1=Nc2cc(C(=O)NCc3cccs3)ccc2Sc2ccccc21 [drawing 685]", "rule met"),
    ("O=C(NCc1cccs1)c1ccc2c(c1)N=C(c1ccc(F)cc1)c1ccccc1S2 [drawing 571]", "rule met"),
    ("CCCCN(CCCNC(=O)c1ccc2c(c1)N=C(CCC)c1ccccc1S2)Cc1ccccc1", "rule not met"),
]

* * *

Items are presented alongside their recorded Emax.
Molecular target: CB1 (mutant) (Homo sapiens, UniProt P21554)
Assay: R-SAT functional receptor assay, CB1 (mutant, truncated after amino acid 417)
Type: cell-based
Conditions: Appendix A; R-SAT CB1; receptor form not stated; relative to SR141716 (100%); read-out: % Inhibition
Endpoint Label: Emax (%)

# Compound, Endpoint Label, Scale Unit, Val
rows = [
    ("CCCC1=Nc2cc(C(=O)N3CCN(c4ccc(F)cc4)CC3)ccc2Sc2ccccc21", "Emax", "%", 108),
    ("O=C(NCc1cccc(Cl)c1)c1ccc2c(c1)N=C(c1ccc(Cl)cc1)c1cc(F)ccc1S2 [drawing 837]", "Emax", "%", 110),
    ("CCCC1=Nc2cc(C(=O)NCCc3ccccc3)ccc2Sc2ccccc21", "Emax", "%", 98),
]

* * *

Molecular target: native CB1 receptors (Rattus norvegicus, UniProt P20272)
Assay: CB1 receptor rat binding assay ([3H]SR141716A, rat brain membranes)
Settings: rat brain membranes, [3H]SR141716A; read-out: Binding rat pKi (converted)
So basically, if Ki comes in under 0.02 µM it's class 1, and if it's 0.02 µM or more it's class 0.

# Molecule, Label
measured = [
    ("O=C(NCc1ccco1)c1ccc2c(c1)N=C(c1ccc(F)cc1)c1ccccc1S2 [drawing 1370]", "class 1"),
    ("CCOC(=O)c1ccc(C2=Nc3cc(C(=O)NCc4cccnc4)ccc3Sc3ccccc32)cc1 [drawing 1350]", "class 0"),
    ("O=C(NCc1ccccc1Cl)c1ccc2c(c1)N=C(c1ccccc1F)c1ccccc1S2 [drawing 1413]", "class 0"),
    ("CCCCNS(=O)(=O)c1ccc2c(c1)N=C(c1ccc(Cl)cc1)c1ccccc1S2 [drawing 1405]", "class 0"),
    ("CC(C)NC(=O)c1ccc2c(c1)N=C(c1ccc(Cl)cc1F)c1ccccc1S2 [drawing 1363]", "class 0"),
    ("CC(CNC(=O)c1ccc2c(c1)N=C(c1ccccc1)c1ccccc1S2)c1ccccc1 (centres unmarked) [drawing 1197]", "class 1"),
    ("CCCCNC(=O)c1ccc2c(c1)N=C(c1ccc(Cl)cn1)c1cc(F)ccc1S2 [drawing 1230]", "class 1"),
    ("O=C(NN1CCCCCC1)c1ccc2c(c1)N=C(c1cccc(F)c1)c1ccccc1S2 [drawing 1215]", "class 1"),
    ("COc1ccc(C2=Nc3cc(C(=O)NC(C)C)ccc3Sc3ccccc32)cc1 [drawing 1550]", "class 0"),
    ("O=C(NCCc1cccc(Cl)c1)c1ccc2c(c1)N=C(c1ccccc1)c1ccccc1S2 [drawing 1457]", "class 1"),
    ("O=C(NCCCC(F)(F)F)c1ccc2c(c1)N=C(c1ccc(Cl)cc1F)c1ccccc1S2 [drawing 1175]", "class 1"),
    ("O=C(NCc1ccncc1)c1ccc2c(c1)N=C(c1ccc(Br)cc1)c1ccccc1S2 [drawing 1453]", "class 0"),
    ("O=C(NN1CCCCC1)c1ccc2c(c1)N=C(c1cccc(F)c1)c1ccccc1S2 [drawing 1374]", "class 0"),
    ("O=C(NCCc1ccncc1)c1ccc2c(c1)N=C(c1cccc(F)c1)c1ccccc1S2 [drawing 1389]", "class 0"),
]

* * *

Assay: Clearance study, liver microsomes (rats)
Conditions: rat, pH 7.4
Items are presented alongside their recorded log10(microsomal CLint at 1 μM).
Endpoint Label: log10(microsomal CLint at 1 μM) (log10 of the value in µL/min/mg)

# Molecule, Endpoint Label, Val
records = [
    ("CC(C)CNC(=O)c1ccc2c(c1)N=C(c1ccc(Cl)cc1)c1ccc(F)cc1S2 [drawing 1657]", "log10(microsomal CLint at 1 μM)", 1.80),
    ("Cc1ccc(N2CCN(C(=O)c3ccc4c(c3)N=C(c3ccc(Cl)cc3)c3ccccc3S4)CC2)c(C)c1 [drawing 1808]", "log10(microsomal CLint at 1 μM)", 1.59),
    ("CC(C)CNC(=O)c1ccc2c(c1)N=C(c1ccc(Cl)c(Cl)c1)c1ccccc1S2 [drawing 1671]", "log10(microsomal CLint at 1 μM)", 1.41),
    ("O=C(NCc1ccccn1)c1ccc2c(c1)N=C(c1ccc(Cl)cc1)c1ccccc1S2 [drawing 1760]", "log10(microsomal CLint at 1 μM)", 1.66),
    ("O=C(NN1CCCCC1)c1ccc2c(c1)N=C(c1ccc(Cl)cc1)c1ccccc1S2 [drawing 1676]", "log10(microsomal CLint at 1 μM)", 1.78),
    ("O=C(NCc1ccc(F)cc1)c1ccc2c(c1)N=C(c1ccc(Cl)cc1)c1ccccc1S2 [drawing 1741]", "log10(microsomal CLint at 1 μM)", 1.75),
    ("O=C(NCc1cccc(Cl)c1)c1ccc2c(c1)N=C(C1CCCCC1)c1ccccc1S2 [drawing 1777]", "log10(microsomal CLint at 1 μM)", 2.66),
    ("Cc1csc(CNC(=O)c2ccc3c(c2)N=C(c2ccc(Cl)s2)c2ccccc2S3)c1 [drawing 1707]", "log10(microsomal CLint at 1 μM)", 1.95),
    ("O=C(NC1CCCCC1)c1ccc2c(c1)N=C(c1cccc(Cl)c1)c1ccccc1S2 [drawing 1675]", "log10(microsomal CLint at 1 μM)", 1.68),
    ("O=C(NCCCc1ccccc1)c1ccc2c(c1)N=C(c1cccc(Cl)c1)c1ccccc1S2 [drawing 1765]", "log10(microsomal CLint at 1 μM)", 2.21),
    ("CC(C)CCNC(=O)c1ccc2c(c1)N=C(c1cccc(Cl)c1)c1ccccc1S2 [drawing 1665]", "log10(microsomal CLint at 1 μM)", 1.89),
    ("O=C(NCc1cccs1)c1ccc2c(c1)N=C(c1ccc(Cl)cc1)c1ccccc1S2 [drawing 1735]", "log10(microsomal CLint at 1 μM)", 1.88),
    ("O=C(NCc1ccc(F)cc1)c1ccc2c(c1)N=C(C1CCCCC1)c1ccccc1S2 [drawing 1775]", "log10(microsomal CLint at 1 μM)", 2.69),
    ("O=C(NCc1cccs1)c1ccc2c(c1)N=C(c1ccccc1F)c1ccccc1S2 [drawing 1744]", "log10(microsomal CLint at 1 μM)", 2.35),
    ("CCCCNC(=O)c1ccc2c(c1)N=C(c1ccc(Cl)s1)c1cc(Cl)ccc1S2 [drawing 1678]", "log10(microsomal CLint at 1 μM)", 1.80),
    ("O=C(NCCCC(F)(F)F)c1ccc2c(c1)N=C(c1ccc(Cl)cc1F)c1ccccc1S2 [drawing 1653]", "log10(microsomal CLint at 1 μM)", 2.02),
    ("O=C(NC1CCCCC1)c1ccc2c(c1)N=C(c1cccc(F)c1)c1ccccc1S2 [drawing 1757]", "log10(microsomal CLint at 1 μM)", 1.95),
    ("C[C@@H]1CCC[C@H](C)N1NC(=O)c1ccc2c(c1)N=C(c1cccc(F)c1)c1ccccc1S2 [drawing 1758]", "log10(microsomal CLint at 1 μM)", 2.50),
    ("O=C(NCc1cccc(Cl)c1)c1ccc2c(c1)N=C(c1ccc(Cl)cc1)c1ccccc1S2 [drawing 1725]", "log10(microsomal CLint at 1 μM)", 1.76),
    ("Cc1ccsc1C1=Nc2cc(C(=O)NCc3ccco3)ccc2Sc2ccccc21 [drawing 1762]", "log10(microsomal CLint at 1 μM)", 2.60),
    ("Cc1ccsc1C1=Nc2cc(C(=O)NCCCC(F)(F)F)ccc2Sc2ccccc21 [drawing 1701]", "log10(microsomal CLint at 1 μM)", 2.47),
    ("CC(C)CNC(=O)c1ccc2c(c1)N=C(c1ccc(Cl)s1)c1ccc(Cl)cc1S2 [drawing 1679]", "log10(microsomal CLint at 1 μM)", 1.75),
    ("CCN(CCNC(=O)c1ccc2c(c1)N=C(c1ccc(Cl)cc1)c1ccccc1S2)c1ccccc1 [drawing 1698]", "log10(microsomal CLint at 1 μM)", 2.32),
    ("CCCCNC(=O)c1ccc2c(c1)N=C(c1ccc(Cl)cn1)c1ccc(F)cc1S2 [drawing 1778]", "log10(microsomal CLint at 1 μM)", 2.36),
    ("O=C(NN1CCCCCC1)c1ccc2c(c1)N=C(c1cccc(Cl)c1)c1ccccc1S2 [drawing 1689]", "log10(microsomal CLint at 1 μM)", 2.21),
    ("CCCCNC(=O)c1ccc2c(c1)N=C(c1ccc(Cl)cn1)c1cc(F)ccc1S2 [drawing 1748]", "log10(microsomal CLint at 1 μM)", 2.12),
    ("O=C(NCCc1ccccc1)c1ccc2c(c1)N=C(c1ccc(Cl)cc1)c1ccccc1S2 [drawing 1745]", "log10(microsomal CLint at 1 μM)", 2.16),
    ("CC(CNC(=O)c1ccc2c(c1)N=C(c1ccc(Cl)cc1)c1cc(F)ccc1S2)c1ccccc1 (stereo not shown) [drawing 1716]", "log10(microsomal CLint at 1 μM)", 2.22),
    ("O=C(NCc1cccc(Cl)c1)c1ccc2c(c1)N=C(c1ccc(F)cc1)c1ccccc1[S+]2[O-] (stereo not shown) [drawing 1790]", "log10(microsomal CLint at 1 μM)", 1.88),
    ("CCCCNC(=O)c1ccc2c(c1)N=C(c1ccc(Cl)cc1)c1cc(F)ccc1S2 [drawing 1702]", "log10(microsomal CLint at 1 μM)", 1.87),
    ("O=C(NCc1ccccc1)c1ccc2c(c1)N=C(c1cccc(Cl)c1)c1ccccc1S2 [drawing 1767]", "log10(microsomal CLint at 1 μM)", 1.93),
]
